Below, each entry is listed with its recorded TGI.
- System: UACC-62 melanoma
- PROTOCOL NOTES: NCI tumour cell line growth inhibition, 48 h

Some entries whose results are on file:
Challenge: Name the recorded TGI for COC1(OC)CC2C(=O)N(Cc3ccccc3)C1C=C2S(=O)(=O)c1ccccc1 (centres undefined) .
Response given: 31.3 µM

Challenge: Name the recorded TGI for Cc1nn(C(=O)c2ccc(Cl)cc2)c2c1C(/C=C/c1ccccc1)SC(N)=N2 (centres undefined) .
Response given: > 10 µM

Challenge: Name the recorded TGI for O=C(Nc1ccc(F)cc1)c1cc(S(=O)(=O)Nc2nc3ccccc3o2)c(SCc2ccccc2)cc1Cl .
Response given: 27.6 µM

***
Challenge: Name the recorded TGI for CC(C)(C)OC(=O)NC(Cc1ccc(OC(C)(C)C)cc1)C(=O)N[C@H]1CCC[C@H]1C(=O)NC(Cc1ccccc1)C(=O)N1CCCC1C(N)=O (some centres undefined) .
Response given: > 100 µM

Challenge: Name the recorded TGI for O=C(Nc1nncs1)NS(=O)(=O)n1c(=S)sc2ccccc21 .
Response given: > 100 µM

Challenge: Name the recorded TGI for Ic1cccc(/C=C/CN2CCN(CCOC(c3ccccc3)c3ccccc3)CC2)c1 .
Response given: 37.4 µM

Challenge: Name the recorded TGI for O=C1NC(=NCCc2cccc(Cl)c2)S/C1=C\c1ccc2ncccc2c1 .
Response given: > 25 µM

Challenge: Name the recorded TGI for O=C1c2ccccc2-c2c1c1ccccc1c(=O)n2CCCCl .
Response given: 23.9 µM

Challenge: Name the recorded TGI for Cc1cc(C)c(NC(=O)c2sc3nc4c(cc3c2N)CN(Cc2ccccc2)CC4)c(C)c1 .
Response given: 42.4 µM

====

- Test system: K-562 leukemia
- PROTOCOL NOTES: NCI tumour cell line growth inhibition, 48 h; in the data active means GI50 below about 0.43 µM; inactive means the rest
Valid outcomes are listed here; reply with one: active, inactive

// known answers, use as guide
Challenge: Given Cn1cc(C2=C(c3cccc(Br)c3)C(=O)NC2=O)c2ccccc21 , state the outcome it received in this test.
Response given: inactive

Challenge: Given Cc1cc(C)c(NC(=O)c2sc3nc4c(cc3c2N)CN(Cc2ccccc2)CC4)c(C)c1 , state the outcome it received in this test.
Response given: inactive

***
Challenge: Given C1=C\COCc2cc(ccc2OCCN2CCCC2)Nc2nccc(n2)-c2cccc(c2)COC/1 , state the outcome it received in this test.
Response given: inactive

Challenge: Given CCOC(=O)/C=C(/C)Sc1cc(O)c2ccccc2c1O , state the outcome it received in this test.
Response given: inactive

Challenge: Given COc1cc2c(c(OC)c1OC)-c1ncc3cc4c(cc3c1C2)OCO4 , state the outcome it received in this test.
Response given: inactive

Challenge: Given COc1ccc(O)c(C(=O)c2ccc(C(=O)N[C@H]3CCCNC[C@@H]3NC(=O)c3ccncc3)cc2)c1F , state the outcome it received in this test.
Response given: inactive

Challenge: Given C=C1C(=O)O[C@H]2[C@H]1CC/C(COC(=O)/C=C\C(=O)NCc1ccc(Cn3c(=O)sn(CCCC)c3=O)cc1)=C\CC[C@@]1(C)O[C@@H]21 , state the outcome it received in this test.
Response given: active

Challenge: Given COCC1(CO)C(=O)C2CCN1CC2 (stereo not given) , state the outcome it received in this test.
Response given: inactive

Challenge: Given N=C(N)c1ccc2nc(-c3cc(CC(=O)N[C@@H](CC(=O)O)C(=O)O)cc(-c4cc(S(N)(=O)=O)ccc4O)c3O)[nH]c2c1 , state the outcome it received in this test.
Response given: inactive

Challenge: Given O[C@H](c1cc(C(F)(F)F)nc2c(C(F)(F)F)cccc12)[C@@H]1CCCCN1 , state the outcome it received in this test.
Response given: inactive

====

Below, each entry is listed with its recorded TGI.
- System: SK-MEL-5 melanoma
- PROTOCOL NOTES: NCI tumour cell line growth inhibition, 48 h

Challenge: Fill in the recorded TGI for this molecule, with SK-MEL-5 melanoma as test system: Cc1ccc(C)c(N=C2NC(=O)C(CC(=O)Nc3ccc(Cl)cc3Cl)S2)c1 (stereo unspecified)
Response given: > 100 µM

Challenge: Fill in the recorded TGI for this molecule, with SK-MEL-5 melanoma as test system: CC(=O)O[C@H]1CC[C@@]2(C)C(=CC[C@@H]3[C@@H]2CC[C@]2(C)NC(=O)/C(=C\c4ccccc4)C[C@@H]32)C1
Response given: 23.2 µM

Challenge: Fill in the recorded TGI for this molecule, with SK-MEL-5 melanoma as test system: O=Cc1ccc2c(c1-c1c(C=O)ccc3c1OCO3)OCO2
Response given: > 100 µM

Challenge: Fill in the recorded TGI for this molecule, with SK-MEL-5 melanoma as test system: CN1C(=O)c2ccccc2OC12C=Cc1ccc(O)cc1O2 (stereo unspecified)
Response given: 37.6 µM

***
Challenge: Fill in the recorded TGI for this molecule, with SK-MEL-5 melanoma as test system: COC(=O)[C@H]1C=C[C@@H](C)n2c(=O)c3cc4ccccc4cc3c(=O)n21
Response given: > 100 µM

Challenge: Fill in the recorded TGI for this molecule, with SK-MEL-5 melanoma as test system: O=C(O)CC(NC(=O)CP(=O)(O)O)C(=O)O (stereo unspecified)
Response given: > 10000 µM

Challenge: Fill in the recorded TGI for this molecule, with SK-MEL-5 melanoma as test system: COc1cc2c3c(n(CCCOC(=O)C(F)(F)F)c(=O)c2cc1OC)-c1cc2c(cc1C3=O)OCO2
Response given: 1.24 µM

Challenge: Fill in the recorded TGI for this molecule, with SK-MEL-5 melanoma as test system: CN(C)CCNC(=O)c1ccc2nc3c(nc2c1)C(=O)c1ccccc1-3
Response given: 32.1 µM

====

- Test system: HL-60(TB) leukemia
- PROTOCOL NOTES: NCI tumour cell line growth inhibition, 48 h
Below, each entry is listed with its recorded TGI.

Some entries whose results are on file:
Challenge: Name the recorded TGI for CC(CO)CCNc1ncnc2c1ncn2CCC(=O)OC(C)(C)C (stereo unspecified) .
Response given: > 100 µM

Challenge: Name the recorded TGI for CC1COC(C)(C)P(=O)(c2ccccc2)C1 (stereo unspecified) .
Response given: > 100 µM

Challenge: Name the recorded TGI for CN(C)CCNC(=O)c1ccc2nc3c(nc2c1)C(=O)c1ccccc1-3 .
Response given: 38.2 µM

Challenge: Name the recorded TGI for CC(C(=O)OCc1ccccc1)(c1ccco1)N1C(=O)OC(c2ccccc2)C1c1ccccc1 (stereo unspecified) .
Response given: > 100 µM

Challenge: Name the recorded TGI for O=S(=O)(Nc1ccc(F)cc1F)c1ccc(-c2cnc(C3CC3)o2)cc1 .
Response given: 6.39 µM

***
Challenge: Name the recorded TGI for Nc1nc(NCC2(CO)CC2)cc(=O)[nH]1 .
Response given: > 100 µM

Challenge: Name the recorded TGI for CC(C)(S)C(N)C(=O)O (stereo unspecified) .
Response given: > 5000 µM

Challenge: Name the recorded TGI for Cc1cc(C)c(C[C@H]2COC(=O)[C@]2(O)Cc2c(C)cc(C)cc2C)c(C)c1 .
Response given: 42.4 µM

Challenge: Name the recorded TGI for CC(=O)Oc1ccccc1C(=O)Nc1ncc([N+](=O)[O-])s1 .
Response given: 4.24 µM

Challenge: Name the recorded TGI for COc1ccc(-c2coc3c4c(ccc3c2=O)OCO4)cc1OC .
Response given: > 100 µM

Challenge: Name the recorded TGI for C/C(CC(=O)Nc1cccc(Cl)c1C)=N\NC(=O)c1ccncc1 .
Response given: > 100 µM

====

Below, each entry is listed with its recorded TGI.
- Tested on: U251 CNS
- PROTOCOL NOTES: NCI tumour cell line growth inhibition, 48 h
Field format: number, assumed µM, no unit text.

Some entries whose results are on file:
Challenge: Name the recorded TGI for CCOC(=O)/C=C/[C@H](O[Si](CC)(CC)CC)C(C)(C)C .
Response given: 65.8

Challenge: Name the recorded TGI for COc1ccc(-n2c(C)cc(-c3ccccc3)c2C)cc1 .
Response given: 25.4

Challenge: Name the recorded TGI for CCCCCCCCCCCCC/C=C/[C@@H](O)[C@H](COC1OC(CO)C(OC2OC(CO)C(O)C(OC3(C(=O)O)CC(O)C(NC(C)=O)C(C(O)C(O)CO)O3)C2O)C(O)C1O)N=[N+]=[N-] (stereo not given in full) .
Response given: 36.1

Challenge: Name the recorded TGI for CCOC(=O)c1c(NC(=O)c2cccc(C(F)(F)F)c2)sc2c(CN(C)C)c(O)ccc12 .
Response given: 5.45

Challenge: Name the recorded TGI for CC(=O)O[C@H]1CC[C@@]2(C)C(=CC[C@@H]3[C@@H]2CC[C@]2(C)NC(=O)/C(=C\c4ccccc4)C[C@@H]32)C1 .
Response given: 37.6

Challenge: Name the recorded TGI for O=C(Oc1ccccc1)N1c2ccccc2[C@@]23O[C@]24CCC[C@H]3C#C/C=C\C#C[C@H]14 .
Response given: 30.3

Challenge: Name the recorded TGI for N#CC1=C(N)Oc2cc(O)ccc2C1c1cccc2ccccc12 (stereo not given) .
Response given: 43

As a next step, examine the compound that follows.
Challenge: Name the recorded TGI for O=C(CSC1CCc2ccccc21)N/N=C/c1ccccc1O (stereo not given) .
Response given: 42.5

Values compiled from PubChem BioAssay (NCI).
